test_system: rat PTP1 (Rattus norvegicus)
Construct: a C-terminal truncation of rat PTP1 (amino acid residues 1-322); GST (N, cleaved yes); made in house; host or cells: E. coli strain TG-1 (pGEX-2T)
Sequence (P20417 1-322): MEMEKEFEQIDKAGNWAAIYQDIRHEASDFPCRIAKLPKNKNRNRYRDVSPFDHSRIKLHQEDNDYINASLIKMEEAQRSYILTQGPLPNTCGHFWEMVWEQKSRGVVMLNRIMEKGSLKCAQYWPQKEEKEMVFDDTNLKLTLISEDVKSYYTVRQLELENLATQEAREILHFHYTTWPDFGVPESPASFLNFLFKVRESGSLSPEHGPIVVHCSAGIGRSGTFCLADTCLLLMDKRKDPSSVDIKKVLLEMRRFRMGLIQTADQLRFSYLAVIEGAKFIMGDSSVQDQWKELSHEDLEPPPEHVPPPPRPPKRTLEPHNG
experiment_description: PTP1 assay, pNPP hydrolysis (rate of change in A405)
Format: biochemical
cond: Conc 10 uM; pNPP hydrolysis; Table 1; read-out: PTP1 Inhib % Inhib
outcome_measure: inhibition at 10 µM (%)
Quick note: give the figure in %, leave out the unit.

Inquiry: For rat PTP1 (Rattus norvegicus), give the measured inhibition at 10 µM of the entry O=C(O)CCC(=O)NC(Cc1ccc(OC(COO)COO)cc1)C(=O)NCc1ccc(C(F)(F)F)cc1 (centres unmarked)
Reply text: 15

Inquiry: Provide measured inhibition at 10 µM on rat PTP1 (Rattus norvegicus) for CCCCCNC(=O)C(Cc1ccc(OC(=CCOO)COO)cc1)NC(=O)CCC(=O)O (centres unmarked) please.
Reply text: 9

Inquiry: Write inhibition at 10 µM of CCCCCNC(=O)[C@H](Cc1ccc(OC(C(=O)O)C(=O)O)cc1)NC(=O)C1C(C(=O)O)[C@@H]2CC[C@@H]1C2 (some centres unmarked) ; system used: rat PTP1 (Rattus norvegicus)
Reply text: 4

Inquiry: Report inhibition at 10 µM on rat PTP1 (Rattus norvegicus) for this entry: `CCCCCNC(=O)[C@H](Cc1ccc(OC(C(=O)O)C(=O)O)cc1)NC(=O)c1ccccc1C(=O)O`
Reply text: 14

Inquiry: With rat PTP1 (Rattus norvegicus) as the test system, provide measured inhibition at 10 µM for this compound: `O=C(O)CCC(=O)N[C@@H](Cc1ccc(OC(C(=O)O)C(=O)O)cc1)C(=O)NCCC(c1ccccc1)c1ccccc1`
Reply text: 3

Inquiry: Please report inhibition at 10 µM with rat PTP1 (Rattus norvegicus) for item `CC(C)CCNC(=O)[C@H](Cc1ccc(OC(C(=O)O)C(=O)O)cc1)NC(=O)CCC(=O)O` .
Reply text: 6

Inquiry: GET inhibition at 10 µM where system = rat PTP1 (Rattus norvegicus) and item = NS(=O)(=O)c1ccc(CCNC(=O)C(Cc2ccc(OC(COO)COO)cc2)NC(=O)CCC(=O)O)cc1 (centres unmarked)
Reply text: 19

Inquiry: For rat PTP1 (Rattus norvegicus), give inhibition at 10 µM of the listed compound: `O=C(O)CCC(=O)N[C@@H](Cc1ccc(OC(C(=O)O)C(=O)O)cc1)C(=O)NCCN1CCCCC1`
Reply text: 2

Inquiry: Name the value of inhibition at 10 µM reported for `CCCC[C@H](NC(=O)[C@H](Cc1ccc(OC(C(=O)O)C(=O)O)cc1)NC(=O)CCC(=O)O)C(N)=O` when tested on rat PTP1 (Rattus norvegicus).
Reply text: 63

Inquiry: Recall the reported inhibition at 10 µM of `CCCCCNC(=O)[C@H](Cc1ccc(OC(C(=O)O)C(=O)O)cc1)NC(=O)[C@@H]1CCCC[C@H]1C(=O)O` on rat PTP1 (Rattus norvegicus) and write it down.
Reply text: 20

Inquiry: Jot down inhibition at 10 µM (rat PTP1 (Rattus norvegicus)) of CCCCCNC(=O)C(Cc1ccc(OCC(=O)O)c(COO)c1)NC(=O)CCC(=O)O (centres unmarked) .
Reply text: 63

Inquiry: // fetch inhibition at 10 µM for `CCCCCNC(=O)[C@H](Cc1ccc(OC(C(=O)O)C(=O)O)cc1)NC(=O)CC1(CC(=O)O)CCCC1` ; system: rat PTP1 (Rattus norvegicus)
Reply text: 20

Inquiry: # lookup: rat PTP1 (Rattus norvegicus) inhibition at 10 µM, key = CCCCCNC(=O)C(Cc1ccc(OS(=O)(=O)O)cc1)NC(=O)CCC(=O)O (centres unmarked)
Reply text: 8

Inquiry: Lab note: rat PTP1 (Rattus norvegicus) assay, enter inhibition at 10 µM for CCCCCNC(=O)[C@H](Cc1ccc(OC(C(=O)O)C(=O)O)cc1)NC(=O)C1CC1C(=O)O (some centres unmarked) here
Reply text: 11

Inquiry: State, for rat PTP1 (Rattus norvegicus), measured inhibition at 10 µM of the compound listed here: `CCCCCNC(=O)[C@H](Cc1ccc(OC(C(=O)O)C(=O)O)cc1)NC(=O)COCC(=O)O`
Reply text: 12

Inquiry: GET inhibition at 10 µM | system: rat PTP1 (Rattus norvegicus) | item: `CCCCCNC(=O)[C@H](Cc1ccc(C=C(C(=O)O)C(=O)O)cc1)NC(=O)CCC(=O)O`
Reply text: 6

Inquiry: Please respond with reported inhibition at 10 µM (system rat PTP1 (Rattus norvegicus)) for O=C(O)CCC(=O)NC(Cc1ccc(OC(COO)COO)cc1)C(=O)NCCCc1ccccc1 (centres unmarked) .
Reply text: 23
